assaySystem: T1, human TGFβ1 (human, UniProt P01137 279-390)
T1 construct: also called TGFβ1 homodimer
T1 sequence (P01137 279-390 limits assumed): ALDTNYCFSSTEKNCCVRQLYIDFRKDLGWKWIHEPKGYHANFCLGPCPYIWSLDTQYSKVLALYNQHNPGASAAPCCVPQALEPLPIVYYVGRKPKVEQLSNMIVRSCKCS
experimentNotes: Biacore off-rate vs wt GC1008, 50 nM
Description: Plasmids encoding either the GC1008 heavy chain or light chain were used as a template in PCR-based mutagenesis reactions. […] Purified variant antibody samples were analyzed in duplicate on a Biacore® 3000 (GE Healthcare) at 50 nM concentrations, using the 100 RU level TGFβ1, 2, and 3 immobilized surfaces. […]
measuredAttribute: kd var/kd wt
Answer as a number with no unit attached.

Qu. Fill in: kd var/kd wt of D56K (antibody, V domains shown, GC1008 IgG4 variant) VH: QVQLVQSGAEVKKPGSSVKVSCKASGYTFSSNVISWVRQAPGQGLEWMGGVIPIVKIANYAQRFKGRVTITADESTSTTYMELSSLRSEDTAVYYCASTLGLVLDAMDYWGQGTLVTVSS VL: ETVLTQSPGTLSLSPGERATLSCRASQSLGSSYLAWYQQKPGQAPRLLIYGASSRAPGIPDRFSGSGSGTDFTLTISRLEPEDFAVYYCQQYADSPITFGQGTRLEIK is ___
Ans. 1.1

Qu. Fill in: kd var/kd wt of Y27H (antibody, V domains shown, GC1008 IgG4 variant) VH: QVQLVQSGAEVKKPGSSVKVSCKASGHTFSSNVISWVRQAPGQGLEWMGGVIPIVDIANYAQRFKGRVTITADESTSTTYMELSSLRSEDTAVYYCASTLGLVLDAMDYWGQGTLVTVSS VL: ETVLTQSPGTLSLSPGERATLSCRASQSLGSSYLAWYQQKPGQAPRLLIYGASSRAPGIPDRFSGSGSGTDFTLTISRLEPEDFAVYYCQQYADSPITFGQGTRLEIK is ___
Ans. 1.5
